Value source: ChEMBL document CHEMBL1201862

System: SF-295
assay method text: NCI tumour cell line growth inhibition, 48 h
The source made the active and inactive calls. Rule as the data show it: active = GI50 up to about 1.1 µM and inactive = higher.
Examples of molecules with documented GI50 follow.

Worked cases, answers included:
| molecule | GI50 |
| --- | --- |
| CCOC(=O)CCCO | > 100 µM (inactive) |
| Cc1ccc2c3c4c(ccc13)C(C)(C)OC4=C(C(C)C)C2=O | 88.3 µM (inactive) |
| NS(=O)(=O)c1nnc(NS(=O)(=O)C(F)(F)F)s1 | > 100 µM (inactive) |
| COC(=O)/C=C(\C(=O)OC)c1cc(C)c2cc(C(C)C)ccc(C)c1-2 | 41.7 µM (inactive) |
| COc1ccc(-n2cnn3c(=O)c4cn[nH]c4nc23)cc1 | > 10 µM (inactive) |
| [N-]=[N+]=CC(=O)c1ccccc1C#CCCc1ccccc1 | 40.4 µM (inactive) |
| CC1(C)N=c2c(ncn2N)=C(C(N)=O)N1 | > 100 µM (inactive) |
| O=C(O)c1nc2ccc(C(F)(F)F)cc2[nH]c1=O | > 100 µM (inactive) |

Identify the reported GI50 for the following entry. CC(=O)OCC1OC(n2cc(F)c(=O)[nH]c2=O)C(NC(=O)OCc2ccccc2)C(OC(C)=O)C1OC(C)=O (centres undefined)
> 100 µM (inactive)

Identify the reported GI50 for the following entry. `Cc1nn(CNc2ccc(F)c(Cl)c2)c(=S)n1/N=C/c1ccc(-c2ccc(Cl)cc2Cl)o1`
15.7 µM (inactive)

Identify the reported GI50 for the following entry. CC(=O)NC1C(OCc2ccccc2)OC(CO)C(O)C1OCC(=O)N1CCCC1C(=O)N[C@@H](CCC(=O)NCCCCNc1c2ccccc2nc2cccc([N+](=O)[O-])c12)C(N)=O (some centres undefined)
53.8 µM (inactive)

Identify the reported GI50 for the following entry. CC(NC(=O)C(N)CC(=O)O)NC(=O)N(C)C(C)(C)C (centres undefined)
> 100 µM (inactive)

Identify the reported GI50 for the following entry. `CC(C)c1cc(C(F)(F)F)nc(NNc2nc(C(C)C)cc(C(F)(F)F)n2)n1`
37.1 µM (inactive)

Identify the reported GI50 for the following entry. `COC(=O)CC1(CNC(=O)OCc2ccccc2)OCCO1`
> 100 µM (inactive)

----------
Test system: CCRF-CEM
assay method text: NCI tumour cell line growth inhibition, 48 h
Activity calls are given as the source filed them. No stated cut-off is given here; in the data, active = GI50 up to about 1.1 µM and inactive = higher.
Outcome (select one): active, inactive

| compound | group |
| --- | --- |
| NC12CC3CC(C1)CC(C(=O)O)(C3)C2 | inactive |
| [N-]=[N+]=CC(=O)OCC(N)C(=O)O (configuration not stated) | active |
| Cn1cc(C(=O)c2ccccc2)cc(C(=O)c2ccccc2)c1=O | inactive |

Assay result, entry N#CC(NCc1cccc(CNC(C#N)c2ccccc2)c1)c1ccccc1 (configuration not stated) — outcome?
inactive

Assay result, entry `O=c1c(Cc2ccc(Cl)cc2)nnc2sc(-c3ccc([N+](=O)[O-])cc3)nn12` — outcome?
inactive

Assay result, entry `C/C(=N\N=C1/C(=O)OC(c2ccccc2)=C1C(=O)c1ccccc1)c1ccc([N+](=O)[O-])cc1` — outcome?
inactive

Assay result, entry O=C(CC(C(=O)c1ccsc1)c1ccsc1)c1ccsc1 (configuration not stated) — outcome?
inactive

----------
Examples of compounds with documented GI50 follow.
System: SF-295
assay method text: NCI tumour cell line growth inhibition, 48 h
Calls of active or inactive are those of the source. Rule as the data show it: active = GI50 up to about 1.1 µM and inactive = higher.

Worked cases, answers included:
| compound | target under test | GI50 |
| --- | --- | --- |
| CSc1ccc(/C=C2\N=C(c3ccccc3)N(/N=C/c3cc4cc(C)ccc4nc3Cl)C2=O)cc1 | SF-295 | 17.9 µM (inactive) |
| O=C(O)c1cc2c3c(c1)[C@H]1C=CC[C@H]1CN3CC1CC=CC21 (some centres undefined) | SF-295 | > 100 µM (inactive) |
| Clc1ccc(NCc2nnc(COc3ccc(OCc4nnc(CNc5ccc(Cl)cc5)o4)c(Cl)c3)o2)cc1 | SF-295 | 20.7 µM (inactive) |

// below: GI50 requested for another compound
Report measured GI50 on SF-295; entry: `N#C/C(C(=O)Nc1ccccc1)=C(/N)N1CCCCC1`
> 100 µM (inactive)

----------
Tested on: UACC-62
assay method text: NCI tumour cell line growth inhibition, 48 h
Activity calls are given as the source filed them. Cut-off read from the data, not from the text of the source: active = GI50 up to about 1.1 µM and inactive = higher.
Examples of compounds with documented GI50 follow.

Worked cases, answers included:
| compound | GI50 |
| --- | --- |
| COC(=O)CCSC1=CC(=O)c2nc3ccccc3c3ccnc1c23 | 8.09 µM (inactive) |
| CSc1nc(O)c(C#N)c(-c2ccccc2)n1 | > 100 µM (inactive) |
| COc1ccc(CN2C(=O)C(Cc3cc(OC)c(OC)c(C)c3OC)N(C(=O)OC(C)C)C(=O)/C2=C/c2cc(OC)c(OC)c(C)c2OC)cc1 (configuration not stated) | > 100 µM (inactive) |

Identify the reported GI50 for the following entry. COc1ccc2nc(NC(=O)C(=O)C(C#N)c3ccc(Cl)c(Cl)c3)sc2c1 (configuration not stated)
> 100 µM (inactive)

Identify the reported GI50 for the following entry. Cc1ccc(C2=Nc3c(N)nc(N)nc3NC(c3ccccc3)C2)cc1 (configuration not stated)
10.3 µM (inactive)

Identify the reported GI50 for the following entry. COc1cccc2c1C(=O)c1c(O)c3c(c(O)c1C2=O)C[C@@](O)(/C(C)=N/NC(=O)c1ccccc1)C[C@@H]3OC1CC(N)C(O)C(C)O1 (some centres not stated)
0.242 µM (active)

Identify the reported GI50 for the following entry. `CCOC(CNc1nn2c(C)nnc2s1)OCC`
> 100 µM (inactive)

----------
Examples of compounds with documented GI50 follow.
Test system: SR
assay method text: NCI tumour cell line growth inhibition, 48 h
The source made the active and inactive calls. No stated cut-off is given here; in the data, active = GI50 up to about 1.1 µM and inactive = higher.

Worked cases, answers included:
| compound | result |
| --- | --- |
| c1ccc(C[n+]2ccc3c(c2)CCCC3)cc1 | > 100 µM (inactive) |
| CC(C)=CCN1c2ccccc2[C@@]2(CC=C(C)C)CCN(C)[C@@H]12 [(+)-DEBROMOFLUSTRAMINE B] | 33.4 µM (inactive) |
| N#C/C(C(=O)Nc1ccccc1)=C(/N)N1CCCCC1 | > 100 µM (inactive) |

Identify the reported GI50 for the following entry. `Cc1c(NC(=O)CSC(=S)N(C)C)c(=O)n(-c2ccccc2)n1C`
> 100 µM (inactive)

----------
Tested on: UACC-257
assay method text: NCI tumour cell line growth inhibition, 48 h
Calls of active or inactive are those of the source. Rule as the data show it: active = GI50 up to about 1.1 µM and inactive = higher.
Outcome (select one): active, inactive

Solved cases below.
| compound | group |
| --- | --- |
| COc1ccc(-c2[nH]c3c4c(nc5c(c24)C(=O)CC(C)(C)C5)CC(C)(C)C3)cc1 | inactive |
| N#Cc1cc2c(cc1C#N)/C(=N\c1cccc(N)n1)N/C2=N\c1cccc(N)n1 | inactive |

Assay result, entry `Cc1ccccc1NC(=O)Cc1csc2[n+]1C(=O)/C(=C/c1ccc([N+](=O)[O-])cc1)S2` — outcome?
inactive

Assay result, entry C=CCCC1CCCNC1=S (centres undefined) — outcome?
inactive

----------
Tested on: HT-29
assay method text: NCI tumour cell line growth inhibition, 48 h
Activity calls are given as the source filed them. Cut-off read from the data, not from the text of the source: active = GI50 up to about 1.1 µM and inactive = higher.
Examples of compounds with documented GI50 follow.

Worked cases, answers included:
| compound | target under test | readout | result |
| --- | --- | --- | --- |
| CCOC(=O)CCCO | HT-29 | GI50 | > 100 µM (inactive) |
| CC(=O)OCC1OC(n2cc(F)c(=O)[nH]c2=O)C(NC(=O)OCc2ccccc2)C(OC(C)=O)C1OC(C)=O (configuration not stated) | HT-29 | GI50 | > 100 µM (inactive) |

Identify the reported GI50 for the following entry. c1ccc2c(c1)cc1n2CC2CN=NC12 (configuration not stated)
> 100 µM (inactive)

Identify the reported GI50 for the following entry. `O=c1c2ccccc2n2c(-c3ccc(O)cc3)nnc2n1-c1ccccc1`
22.1 µM (inactive)

Identify the reported GI50 for the following entry. C[C@]12C(=O)C=CCC1=CC[C@@H]1[C@@H]2[C@H]2CC3(O)C(=O)O[C@@]4(C)[C@H]5C[C@@]6(C)[C@@H]7[C@@]2(O)[C@]1(OC[C@H]6C(=O)O5)O[C@]734 (some centres not stated)
40.1 µM (inactive)

Identify the reported GI50 for the following entry. CC1(C)OCC2OC3([C@H](O)CCO)OC(C)(C)OC3C2O1 (some centres not stated)
> 100 µM (inactive)

Identify the reported GI50 for the following entry. CCOC(=O)c1cc(C2CCN(CC(C)CC)C2=S)c(-c2cc(C)no2)[nH]1 (configuration not stated)
41.7 µM (inactive)

----------
Test system: DLD-1
assay method text: NCI tumour cell line growth inhibition, 48 h
Calls of active or inactive are those of the source. No stated cut-off is given here; in the data, active = GI50 up to about 1.1 µM and inactive = higher.
Outcome (select one): active, inactive

Assay result, entry `CC(=O)/C(=N\O)C(=O)NCCc1ccccc1` — outcome?
inactive

Assay result, entry CC1C(O)C2(Oc3cc4c(c5c3[C@@H](CC5O)[C@H]2C)CCC2Cc3nc5c(nc3C[C@@]42C)CC2CCC3C4=C[C@H]6O[C@@]7(O[C@@](C)(CO)C[C@@H]7O)C(C)[C@@]6(O)[C@]4(C)[C@@H](O)CC3[C@]2(C)C5)OC1(C)C (stereo partly drawn) — outcome?
active
